tested on: porcine sclera; experiment: Thermal shrinkage temperature analysis of porcine scleral strips; conditions: 100 mM reagent, pH 7.4, 37° C., 96 hrs
outcome.measure: T50 Δ (change in 50% shrinkage temperature compared to control) (°C)
Just the number in °C, nothing appended.

>>> result_number("NCCO [2-aminoethanol, reference compound]")
2.6
>>> result_number("CC[N+](=O)[O-] [2-nitroethane, reference compound]")
0
>>> result_number("CCC(C(C)O)[N+](=O)[O-] (stereo not shown)")
5.4

// query Tell me the measured T50 Δ (change in 50% shrinkage temperature compared to control) of NCCN(CCN)/[N+]([O-])=N/O [DETA/NONO, diethylenetriaamine NONOate, reference compound] , please.
// result 0.2

// query Would you mind telling me what T50 Δ (change in 50% shrinkage temperature compared to control) value was observed for CC(CO)[N+](=O)[O-] (stereo not shown) ?
// result 7.4

// query Recorded T50 Δ (change in 50% shrinkage temperature compared to control) for O=[N+]([O-])c1ccccc1O [2-nitrophenol, reference compound] , please?
// result 0.7

// query Recorded T50 Δ (change in 50% shrinkage temperature compared to control) for CCO [Ethanol, reference compound] , please?
// result −0.1

* * *

molecules and their reported Ti (temperature at 1% absolute shrinkage)
test system: porcine sclera; experiment: Thermal shrinkage temperature analysis of porcine scleral strips; settings: 10 mM reagent, pH 7.4, 37° C., 96 hrs
Dear colleague, please return just the value in °C, with no unit written.

>>> result_number("O=[N+]([O-])CCO [2-nitroethanol]")
67.2
>>> result_number("CCC(C(C)O)[N+](=O)[O-] (centres unmarked) [3-nitro-2-pentanol]")
65.3
>>> result_number("O=[N+]([O-])c1ccccc1O [2-nitrophenol, reference compound]")
62.3
>>> result_number("CC[N+](=O)[O-] [2-nitroethane, reference compound]")
62.5

Let us examine a further case.
// query # lookup: Ti (temperature at 1% absolute shrinkage) of CC(CO)[N+](=O)[O-] (centres unmarked) [2-nitro-1-propanol]
// result 64.4
